B1: LINE1-mini (parent)
chain: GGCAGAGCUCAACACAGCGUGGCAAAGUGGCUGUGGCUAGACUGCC

Variants of: B1
Method: self-cleavage, relative activity (ratio to wild type); higher = more cleavage; in vitro, sequencing; the parent is a self-cleaving ribozyme
Reported self-cleavage by item:

Mutation Descriptor: A4C A11C
self-cleavage: 0.04
--
Mutation Descriptor: G35A C45U
self-cleavage: 0.13
--
Mutation Descriptor: U38G C46U
self-cleavage: 0.04
--
Mutation Descriptor: U9A C15U
self-cleavage: 0.17
--
Mutation Descriptor: C3U G17C
self-cleavage: 0.18
--
Mutation Descriptor: C23G G30U
self-cleavage: 0.75
--
Mutation Descriptor: G40U C45G
self-cleavage: 0.14
--
Mutation Descriptor: C8A C42G
self-cleavage: 0.19
--
Mutation Descriptor: A16G A41C
self-cleavage: 0.11
--
Mutation Descriptor: C3G G22C
self-cleavage: 0.26
--
Mutation Descriptor: A16G U32A
self-cleavage: 0.07

Data origin: the RNAGym collection of RNA variant scans (doi:10.7554/elife.90254)
